- assay.text: Half life in human whole blood
- Format: ADME, tissue-based
property.name: half-life (min)

Cc1ccc([C@@H](Oc2ccc(C(=O)N[C@H]3CCCN(C(=O)[C@@H]4CCC(=O)O4)C3)nc2)[C@H](C)NC(=O)C(F)(F)F)cc1; 83
Cc1ccc([C@@H](Oc2ccc(C(=O)N[C@@H]3CCCN(C(=O)[C@@H]4COC(=O)C4)C3)nc2)[C@H](C)NC(=O)C(F)(F)F)cc1; 17
Cc1ccc([C@@H](Oc2ccc(C(=O)N[C@@H]3CCCN(C(=O)[C@H]4CCC(=O)O4)C3)nc2)[C@H](C)NC(=O)C(F)(F)F)cc1; 51

[I] Cc1ccc([C@@H](Oc2ccc(C(=O)N[C@@H]3CCCN(C(=O)[C@@H]4CCC(=O)O4)C3)nc2)[C@H](C)NC(=O)C(F)(F)F)cc1
[II] Cc1ccc([C@@H](Oc2ccc(C(=O)N[C@H]3CCCN(C(=O)[C@@H]4COC(=O)C4)C3)nc2)[C@H](C)NC(=O)C(F)(F)F)cc1
Given the listed items, does I or II have the lesser reported half-life? Could you answer with the label of the item you picked?
I
(I: 44 min, II: 102 min)

====

- target.of.assay: Glucocorticoid receptor (Homo sapiens, UniProt P04150)
- Sequence (P04150 whole entry): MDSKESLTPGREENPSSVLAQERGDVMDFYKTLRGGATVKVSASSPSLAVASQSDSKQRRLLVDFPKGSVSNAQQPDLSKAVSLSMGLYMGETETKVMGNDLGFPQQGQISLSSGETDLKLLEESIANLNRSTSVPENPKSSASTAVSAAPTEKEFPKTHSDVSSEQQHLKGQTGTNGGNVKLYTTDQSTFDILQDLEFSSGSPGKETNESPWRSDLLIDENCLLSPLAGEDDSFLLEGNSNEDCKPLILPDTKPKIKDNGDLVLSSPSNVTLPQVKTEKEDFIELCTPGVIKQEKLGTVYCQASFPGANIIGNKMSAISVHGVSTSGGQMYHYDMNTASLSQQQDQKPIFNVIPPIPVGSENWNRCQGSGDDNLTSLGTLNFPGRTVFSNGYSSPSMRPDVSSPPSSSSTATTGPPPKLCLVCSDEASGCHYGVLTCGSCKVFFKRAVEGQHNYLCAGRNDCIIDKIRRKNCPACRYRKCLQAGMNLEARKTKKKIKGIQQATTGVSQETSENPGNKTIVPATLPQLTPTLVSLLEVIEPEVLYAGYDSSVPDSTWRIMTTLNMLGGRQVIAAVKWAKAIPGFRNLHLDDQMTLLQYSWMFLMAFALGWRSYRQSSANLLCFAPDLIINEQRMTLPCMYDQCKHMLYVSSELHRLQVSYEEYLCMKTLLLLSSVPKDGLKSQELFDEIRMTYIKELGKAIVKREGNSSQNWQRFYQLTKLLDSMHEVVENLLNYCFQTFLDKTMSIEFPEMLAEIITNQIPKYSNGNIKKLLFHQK
- assay.text: Agonist activity at human glucocorticoid receptor in PBMC assessed as inhibition of LPS-induced TNFalpha release
pIC50: −log10 of the molar value.
property.name: pIC50

Below: 2 compounds and their reported pIC50.
Cc1ccc([C@@H](Oc2ccc(C(=O)Nc3ccccc3)nc2)[C@H](C)NC(=O)C(F)(F)F)cc1; 7.59
Cc1ccc([C@@H](Oc2ccc3c(cnn3-c3ccc(F)cc3)c2)[C@H](C)NC(=O)C(F)(F)F)cc1; 8.70

[a] C[C@H](NC(=O)[C@@H]1CCCO1)[C@H](Oc1ccc(C(=O)O[C@H]2CCCN(C(=O)[C@H]3COC(=O)C3)C2)cc1)c1ccc(C2CC2)cc1
[b] C[C@H](NC(=O)[C@H]1CCCO1)[C@H](Oc1ccc(C(=O)O[C@H]2CCCN(C(=O)[C@H]3COC(=O)C3)C2)cc1)c1ccc(C2CC2)cc1
Given the listed items, does a or b have the lesser reported pIC50? Could you answer with the label of the item you picked?
a
(a: 7.66, b: 8.70)

[I] Cc1ccc([C@@H](Oc2ccc(C(=O)N[C@H]3CCCN(C(=O)[C@H]4COC(=O)C4)C3)cc2)[C@H](C)NC(=O)C(F)(F)F)cc1
[II] C[C@H](NC(=O)C(F)(F)F)[C@H](Oc1ccc(C(=O)O[C@H]2CCCN(C(=O)[C@H]3COC(=O)C3)C2)cc1)c1ccc(C2CC2)cc1
Given the listed items, does I or II have the lesser reported pIC50? Could you answer with the label of the item you picked?
I

====

- assay.text: Half life in human whole blood
- Format: ADME, tissue-based
property.name: half-life

Cc1ccc([C@@H](Oc2ccc(C(=O)N[C@H]3CCCN(C(=O)[C@H]4CCC(=O)O4)C3)nc2)[C@H](C)NC(=O)C(F)(F)F)cc1; > 120 min
Cc1ccc([C@@H](Oc2ccc(C(=O)N[C@H]3CCCN(C(=O)[C@H]4COC(=O)C4)C3)nc2)[C@H](C)NC(=O)C(F)(F)F)cc1; < 10 min

Here is another compound to look at.
Give the measured half-life of Cc1ccc([C@@H](Oc2ccc(C(=O)N[C@@H]3CCCN(C(=O)[C@H]4COC(=O)C4)C3)nc2)[C@H](C)NC(=O)C(F)(F)F)cc1 .
< 10 min
